MEASURED TARGET: ROS (Homo sapiens, UniProt P08922)
Sequence (P08922 28-2347): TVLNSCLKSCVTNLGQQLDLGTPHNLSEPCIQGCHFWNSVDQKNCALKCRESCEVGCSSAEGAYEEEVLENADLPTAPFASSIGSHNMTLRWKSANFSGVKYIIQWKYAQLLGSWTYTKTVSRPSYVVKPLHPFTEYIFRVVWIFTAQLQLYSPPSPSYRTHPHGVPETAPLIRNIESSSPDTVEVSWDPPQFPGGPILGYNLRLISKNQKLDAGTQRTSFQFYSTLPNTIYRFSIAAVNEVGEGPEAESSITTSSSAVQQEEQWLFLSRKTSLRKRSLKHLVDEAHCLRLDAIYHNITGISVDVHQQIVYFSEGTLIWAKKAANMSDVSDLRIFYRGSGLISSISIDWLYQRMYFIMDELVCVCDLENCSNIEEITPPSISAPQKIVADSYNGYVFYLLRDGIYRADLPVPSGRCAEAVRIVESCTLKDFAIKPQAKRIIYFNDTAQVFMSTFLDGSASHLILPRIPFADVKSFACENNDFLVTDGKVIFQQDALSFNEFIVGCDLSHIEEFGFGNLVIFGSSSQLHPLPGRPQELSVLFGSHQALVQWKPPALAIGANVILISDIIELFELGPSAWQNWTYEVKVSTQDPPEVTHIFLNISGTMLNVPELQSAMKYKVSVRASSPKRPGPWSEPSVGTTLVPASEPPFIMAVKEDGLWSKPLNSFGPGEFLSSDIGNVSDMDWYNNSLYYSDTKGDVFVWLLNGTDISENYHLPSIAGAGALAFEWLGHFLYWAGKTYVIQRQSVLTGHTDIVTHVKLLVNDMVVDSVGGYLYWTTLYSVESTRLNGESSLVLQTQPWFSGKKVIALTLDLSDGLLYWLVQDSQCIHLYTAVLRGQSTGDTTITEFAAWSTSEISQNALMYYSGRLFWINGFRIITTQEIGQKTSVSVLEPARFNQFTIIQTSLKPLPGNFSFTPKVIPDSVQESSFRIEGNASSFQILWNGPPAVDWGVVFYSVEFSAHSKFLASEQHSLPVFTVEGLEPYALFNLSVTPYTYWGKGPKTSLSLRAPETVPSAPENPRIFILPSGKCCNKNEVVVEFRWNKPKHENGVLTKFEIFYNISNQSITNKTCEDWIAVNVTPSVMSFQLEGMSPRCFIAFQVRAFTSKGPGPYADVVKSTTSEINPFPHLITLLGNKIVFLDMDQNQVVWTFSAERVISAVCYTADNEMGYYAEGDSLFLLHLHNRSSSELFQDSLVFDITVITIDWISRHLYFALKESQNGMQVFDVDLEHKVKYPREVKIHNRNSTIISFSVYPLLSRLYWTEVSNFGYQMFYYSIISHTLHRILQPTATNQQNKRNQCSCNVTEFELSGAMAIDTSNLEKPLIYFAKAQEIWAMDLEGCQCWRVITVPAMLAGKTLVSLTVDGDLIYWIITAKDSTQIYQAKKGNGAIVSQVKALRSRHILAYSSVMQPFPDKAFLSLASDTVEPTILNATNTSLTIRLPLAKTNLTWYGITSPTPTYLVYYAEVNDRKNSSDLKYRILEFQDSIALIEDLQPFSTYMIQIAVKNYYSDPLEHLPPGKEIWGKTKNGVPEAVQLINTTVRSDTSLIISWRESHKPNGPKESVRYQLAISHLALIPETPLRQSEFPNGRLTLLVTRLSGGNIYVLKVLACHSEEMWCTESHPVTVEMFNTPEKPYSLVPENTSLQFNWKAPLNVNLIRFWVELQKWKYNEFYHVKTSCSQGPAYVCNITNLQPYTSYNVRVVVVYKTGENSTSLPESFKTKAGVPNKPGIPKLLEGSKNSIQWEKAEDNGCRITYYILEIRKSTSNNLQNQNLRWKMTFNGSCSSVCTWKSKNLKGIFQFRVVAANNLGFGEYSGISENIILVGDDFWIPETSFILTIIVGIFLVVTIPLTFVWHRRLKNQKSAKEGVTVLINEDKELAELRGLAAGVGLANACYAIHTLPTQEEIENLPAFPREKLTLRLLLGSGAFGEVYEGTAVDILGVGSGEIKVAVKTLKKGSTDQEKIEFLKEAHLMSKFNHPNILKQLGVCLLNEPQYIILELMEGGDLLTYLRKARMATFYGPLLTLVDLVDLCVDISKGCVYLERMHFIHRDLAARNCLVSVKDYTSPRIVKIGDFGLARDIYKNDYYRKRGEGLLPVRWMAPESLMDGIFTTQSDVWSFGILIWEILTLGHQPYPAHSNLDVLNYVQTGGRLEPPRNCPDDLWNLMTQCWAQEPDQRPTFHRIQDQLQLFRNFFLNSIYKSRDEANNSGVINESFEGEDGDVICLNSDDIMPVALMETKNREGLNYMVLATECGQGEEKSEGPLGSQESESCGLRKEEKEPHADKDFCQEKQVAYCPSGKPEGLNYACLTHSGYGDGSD
ASSAY: In vitro ROS enzymatic reaction assay (HTRF, Cisbio)
Format: biochemical
Set-up: ROS or EGFR enzyme, 0.008 ng/ul
ASSAY SETUP: ROS kinase, compound at 5 uM; read-out: Kinase Inhib. 5 uM (%)
PROPERTY MEASURED: inhibition at 5 µM (%)
Supply the numeric figure in %, leaving out any unit text.

Before answering, review these 2 worked examples.
INSERT INTO results (compound, measured_target, measured_value) VALUES
  ('O=C(NCC1CCNCC1)c1ccc(Nc2ncc(Cl)c(Nc3ccc4ncsc4c3)n2)cc1 [drawing 331]', 'ROS (Homo sapiens, UniProt P08922)', 100),
  ('O=C(c1ccccc1)n1nc(-c2ccco2)nc1NCc1ccc(Cl)cc1 [drawing 295]', 'ROS (Homo sapiens, UniProt P08922)', 26.6);

Inquiry: Given O=C(c1ccc(Nc2ncc(Cl)c(Nc3ccc4ncsc4c3)n2)cc1)N1CCCCC1 [drawing 306] , respond with its inhibition at 5 µM.
Reply text: 87.9

* * *

Test system: U87 glioblastoma cell line
ASSAY: In-vitro cell survival assay (Alamar blue), U87
Assay type: cell-based
ASSAY SETUP: 24 h; U87, one day after compound addition
Reported pEC50 values are given for each entry in this list.
Note: pEC50 values are expressed as the negative base-10 logarithm of concentration in M.

Answered cases to consult:
INSERT INTO assay_data (molecule, property_measured, measured_value) VALUES
  ('O=C(c1cccc(-c2noc(-c3n[nH]c4c3CCCC4)n2)c1)N1CCCCC1 [drawing 385]', 'pEC50', 4.85),
  ('Cc1cccc(Nc2nccc(Nc3cccc(C(=O)NCc4ccc(F)cc4)c3)n2)c1 [drawing 379]', 'pEC50', 4.89),
  ('CC(C)c1nc(Nc2ccc(N)cc2)nc(Nc2cc(C3CC3)[nH]n2)n1 [drawing 461]', 'pEC50', 4.46),
  ('CN1CCN(C(=O)c2ccc(Nc3ncc(Cl)c(Nc4ccc5ncsc5c4)n3)cc2)CC1 [drawing 444]', 'pEC50', 4.82),
  ('COc1ccc(C2=CCNCC2)cc1Nc1nccc(Nc2ccc3ncsc3c2)n1 [drawing 467]', 'pEC50', 4.74);

Turning now to a further molecule:
Inquiry: Input O=C(NCCc1ccc(F)cc1)c1cccc(Nc2nccc(Nc3ccc4ncsc4c3)n2)c1 [drawing 372] , output reported pEC50.
Reply text: 5.00

* * *

System: U118 glioblastoma cell line
ASSAY: In-vitro cell survival assay (Alamar blue), U118
Type: cell-based
ASSAY SETUP: 24 h; U118, one day after compound addition
PROPERTY MEASURED: EC50

INSERT INTO measurements (compound, measured_target, measured_value) VALUES
  ('O=C(NCCN1CCOCC1)c1cccc(Nc2nccc(Nc3ccc4ncsc4c3)n2)c1 [drawing 411]', 'U118 glioblastoma cell line', '> 100 µM'),
  ('Cc1ccc(F)cc1S(=O)(=O)Nc1cccc(C(=O)OCC(=O)NC2CCCCC2)c1 [drawing 404]', 'U118 glioblastoma cell line', '> 100 µM'),
  ('O=C(NNc1cc(C(F)(F)F)ccc1Cl)c1cccnc1Oc1ccccc1 [drawing 390]', 'U118 glioblastoma cell line', '> 100 µM');

Inquiry: Give EC50 for NC(Cc1ccccc1)C(=O)n1ccc2cccnc21 (stereo not drawn) [drawing 479]
Reply text: > 100 µM

Inquiry: Answer with the recorded EC50 of CC(C)CN(CC(C)C)C(=O)c1cccc(Nc2nccc(Nc3ccc4ncsc4c3)n2)c1 [drawing 424] only.
Reply text: > 100 µM

Inquiry: Give recorded EC50. Cn1c(=O)c2c(nc3n(CCO)c(-c4ccccc4)cn23)n(C)c1=O [drawing 402]
Reply text: > 100 µM

Inquiry: Item O=C1c2ccccc2C(=O)N1C[C@H](O)Cn1nc(-c2cccs2)c2ccccc2c1=O [drawing 405] : provide EC50
Reply text: > 100 µM

Inquiry: Look up and report measured EC50 for this entry: CN1CCN(C(=O)c2cccc(Nc3nccc(Nc4ccc5ncsc5c4)n3)c2)CC1 [drawing 415]
Reply text: 39 µM

Inquiry: Recall and state the measured EC50 for O=C(NCC1CCCCC1)c1cccc(Nc2nccc(Nc3ccc4ncsc4c3)n2)c1 [drawing 407] .
Reply text: > 100 µM

Inquiry: # return recorded EC50 for input Nc1nc(Nc2ccc(C(=O)N3CCCCCC3)cc2)cc(Nc2ccc3ncsc3c2)n1 [drawing 409]
Reply text: > 100 µM

Inquiry: Give me measured EC50, please, for this compound: O=C1NCCN1CCN1C(=O)c2ccccc2N[C@H]1c1ccccc1 [drawing 391]
Reply text: 38 µM

Inquiry: Specify measured EC50 for Clc1ccc(CNc2cc(-c3ccccc3)ncn2)cc1 [drawing 383] .
Reply text: 33 µM

* * *

The following compounds are listed with their measured inhibition at 5 µM values.
MEASURED TARGET: UniProt:P08922
ASSAY: In vitro ROS enzymatic reaction assay (HTRF, Cisbio)
Format: biochemical
Set-up: ROS or EGFR enzyme, 0.008 ng/ul
ASSAY SETUP: ROS kinase, compound at 5 uM; read-out: Kinase Inhib. 5 uM (%)
// note: answer is a bare numeric in %

INSERT INTO assay_data (compound, result_unit, measured_value) VALUES
  ('CCN(CC)CCNC(=O)c1cccc(Nc2nccc(Nc3ccc4ncsc4c3)n2)c1 [drawing 236]', '%', 102),
  ('Cc1ccc(F)cc1S(=O)(=O)Nc1cccc(C(=O)OCC(=O)NC2CCCCC2)c1 [drawing 267]', '%', 20);

Shift focus to the following entry.
Inquiry: Specify reported inhibition at 5 µM for the compound shown: O=C1NN=C(c2ccccc2)/C1=C1\OC(c2ccccc2)=CS1 [drawing 255]
Reply text: 69.2

* * *

Test system: U118 glioblastoma cell line
ASSAY: In-vitro cell survival assay (Alamar blue), U118
Assay type: cell-based
ASSAY SETUP: 24 h; U118, one day after compound addition
pEC50: −log10 of the molar value.
PROPERTY MEASURED: pEC50

Some entries whose results are on file:
INSERT INTO measurements (compound, measured_value) VALUES
  ('Nc1ccc(Nc2nccc(Nc3cc(C4CC4)[nH]n3)n2)cc1 [drawing 436]', 4.52),
  ('O=C1NN=C(c2ccccc2)/C1=C1\OC(c2ccccc2)=CS1 [drawing 392]', 4.57),
  ('Cc1ccc(NC(=O)CCn2ccc3ccccc32)cc1 [drawing 472]', '< 4.00'),
  ('Nc1cccc2cccc(N=C(CC(=O)O)C(=O)O)c12 [drawing 481]', '< 4.00'),
  ('Nc1nc(Nc2ccc(C(=O)N3CCC[C@H]4CCCC[C@H]43)cc2)cc(Nc2ccc3ncsc3c2)n1', '< 4.00');

Now examine the next entry.
Inquiry: Please indicate pEC50 recorded for Cc1ccc(Cn2c(NCc3nc4ccccc4n3C)nc3ccccc32)cc1 [drawing 355]
Reply text: < 4.00

* * *

IC50, UniProt:P00533, per-entry values.
Sequence (P00533 25-1210, species assumed): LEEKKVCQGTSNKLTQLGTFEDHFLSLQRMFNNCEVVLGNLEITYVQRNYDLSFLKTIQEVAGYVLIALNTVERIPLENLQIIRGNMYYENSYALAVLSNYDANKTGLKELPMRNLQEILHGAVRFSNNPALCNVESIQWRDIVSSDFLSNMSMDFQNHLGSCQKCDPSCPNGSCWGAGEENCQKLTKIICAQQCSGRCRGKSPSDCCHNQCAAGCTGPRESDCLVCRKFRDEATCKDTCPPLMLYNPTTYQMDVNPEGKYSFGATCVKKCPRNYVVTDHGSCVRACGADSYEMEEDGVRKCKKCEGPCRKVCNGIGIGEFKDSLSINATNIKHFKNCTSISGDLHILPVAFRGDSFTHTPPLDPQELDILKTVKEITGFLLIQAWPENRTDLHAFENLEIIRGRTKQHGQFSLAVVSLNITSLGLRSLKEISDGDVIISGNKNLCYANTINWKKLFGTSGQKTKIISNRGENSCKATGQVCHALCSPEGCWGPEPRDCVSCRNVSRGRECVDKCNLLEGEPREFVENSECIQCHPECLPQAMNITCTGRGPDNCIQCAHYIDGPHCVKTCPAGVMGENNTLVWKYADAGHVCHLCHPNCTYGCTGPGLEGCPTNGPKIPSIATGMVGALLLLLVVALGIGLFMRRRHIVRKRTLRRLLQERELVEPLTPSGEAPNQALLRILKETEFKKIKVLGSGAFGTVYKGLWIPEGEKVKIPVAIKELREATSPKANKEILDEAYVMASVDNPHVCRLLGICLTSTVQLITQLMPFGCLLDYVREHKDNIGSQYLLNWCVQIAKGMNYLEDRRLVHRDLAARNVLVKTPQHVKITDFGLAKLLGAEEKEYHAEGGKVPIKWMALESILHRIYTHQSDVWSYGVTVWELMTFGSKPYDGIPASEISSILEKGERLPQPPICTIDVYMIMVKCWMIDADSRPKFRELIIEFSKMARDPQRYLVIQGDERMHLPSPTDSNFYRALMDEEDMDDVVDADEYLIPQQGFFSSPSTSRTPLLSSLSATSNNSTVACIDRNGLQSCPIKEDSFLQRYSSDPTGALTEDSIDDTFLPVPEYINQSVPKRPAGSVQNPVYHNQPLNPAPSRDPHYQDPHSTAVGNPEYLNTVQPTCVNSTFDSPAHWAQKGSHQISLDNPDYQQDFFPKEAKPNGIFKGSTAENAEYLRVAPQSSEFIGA

Illustrative cases are given below, each with its answer.
INSERT INTO measurements (molecule, measured_value) VALUES
  ('Brc1cccc(Nc2nccc(Nc3ccc4ncsc4c3)n2)c1 [drawing 305]', '> 5 µM'),
  ('c1cc(Nc2nccc(Nc3ccc4ncsc4c3)n2)cc(C2CCNCC2)c1 [drawing 303]', '4.6 µM'),
  ('O=C(O)c1cccc(Nc2ncc(Cl)c(Nc3ccc4ncsc4c3)n2)c1 [drawing 325]', '> 5 µM'),
  ('COc1ccc(C2=CCNCC2)cc1Nc1nccc(Nc2ccc3ncsc3c2)n1 [drawing 330]', '0.802 µM');

Inquiry: Report value: IC50, system: UniProt:P00533, molecule: Clc1nccc(Nc2cc(C3CC3)[nH]n2)n1 [drawing 298]
Reply text: > 50 µM

Inquiry: For UniProt:P00533, give IC50 of the listed molecule: O=C(O)c1ccc(Nc2ncc(Cl)c(Nc3ccc4ncsc4c3)n2)cc1 [drawing 308]
Reply text: 2.4 µM

Inquiry: Report IC50 on UniProt:P00533 for this entry: O=C(c1ccc(Nc2ncc(Cl)c(Nc3ccc4ncsc4c3)n2)cc1)N1CCCCC1 [drawing 306]
Reply text: > 5 µM

Inquiry: Enter recorded IC50 with UniProt:P00533 for NC1CCN(C(=O)c2ccc(Nc3ncc(Cl)c(Nc4ccc5ncsc5c4)n3)cc2)CC1 [drawing 327] here.
Reply text: > 5 µM

Inquiry: Enter IC50 (test system UniProt:P00533) for Nc1cccc(C2CCN(c3nccc(Nc4ccc5ncsc5c4)n3)CC2)c1 [drawing 302]
Reply text: 4.7 µM

* * *

Measured pEC50 values are reported for all entries that follow.
System: HeLa cervical cancer cell line
ASSAY: In-vitro cell survival assay (Alamar blue), HeLa
Type: cell-based
ASSAY SETUP: Homo sapiens, 24 h, one day after compound addition
Please keep in mind that pEC50 is minus log10 of the molar concentration; only the number is needed.

Observe how each entry below is paired with its result.
INSERT INTO assay_data (compound, property_measured, measured_value) VALUES
  ('Nc1cccc(C2CCN(c3nccc(Nc4ccc5ncsc5c4)n3)CC2)c1 [drawing 439]', 'pEC50', 5.22),
  ('CC(C)c1nc(Nc2ccc(C(=O)N3CCCCC3)cc2)nc(Nc2ccc3ncsc3c2)n1 [drawing 455]', 'pEC50', 4.52),
  ('CC(C)(C)OC(=O)NC1CCN(C(=O)c2ccc(Nc3ncc(Cl)c(Nc4ccc5ncsc5c4)n3)cc2)CC1 [drawing 446]', 'pEC50', 4.82);

Inquiry: Please indicate pEC50 recorded for COc1cccc(Nc2nc(N)c(C(=O)c3c(C)[nH]c4ccccc34)s2)c1 [drawing 384]
Reply text: 4.14
